Please respond with reported growth inhibition for every item in the list.
- experimental_protocol: NCI Yeast Anticancer Drug Screen. Data for the wt1 strain (AID 149);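 also: 0% = growth of vehicle-treated wt1 cultures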
- test_context: S. cerevisiae wt1 strain (SPY 50644) growth inhibition; at 1.2 µM; stronger effect = higher value
About 79,000 compounds went through this panel and 15% of them were active in at least one assay; those are over-represented in the sample as a whole.
I only need the number, in %, no unit after it.

Task: # lookup: growth inhibition of CCCN(CCC)CC(O)c1cc(-c2ccc(Cl)cc2)nc2c(C)c(Cl)ccc12 (centres undefined)
Output: -1

Task: Can you handle COC(=O)c1ccc(CCC2=CC(=O)C(Br)=CC2=O)cc1 next?
Output: 4

Task: Again, but for c1ccc2c(c1)Oc1cccc3cccc-2c13
Output: -11

Task: Follow-up item: CCNc1nnc(CSc2nc(-c3ccccc3)c(-c3ccccc3)[nH]2)s1
Output: -4

Task: Also BrCc1cccc2ccc3cccc(CBr)c3c12 ?
Output: -3

Task: Consider next the compound CC(=O)Cc1ccc[cH-]1.[Fe+2].c1cc[cH-]c1 in the same way.
Output: 1

Task: Quick one: CN(C)c1ccc(C(C#N)=C(C#N)C#N)cc1
Output: -6

Task: And what about the compound CCc1ccc(NS(=O)(=O)c2ccccc2)c([N+](=O)[O-])c1 ?
Output: 1

Task: Next entry: CCCCCCCCCCCCCC[N+](C)(CC(=O)[O-])Cc1ccccc1 (centres undefined)
Output: -1

Task: Ok, now S=C(N/N=C/c1ccccn1)Nc1ccc(Cl)cc1
Output: -7

Task: Now consider O=C(NCCCNCCCNC(=O)c1cc(-c2ccccc2)nc2ccccc12)c1cc(-c2ccccc2)nc2ccccc12 and answer again.
Output: -1

Task: Query C[C@H](CCC(=O)NN)[C@H]1CC[C@H]2[C@@H]3CC[C@@H]4C[C@H](O)CC[C@]4(C)[C@H]3CC[C@]12C next
Output: 1

Task: Would you mind doing CCN(CC)CCNc1ccc([N+](=O)[O-])c2nc3ccc(OC)cc3c(N)c12 as well?
Output: -8

Task: How about O=[N+]([O-])c1cc2no[n+]([O-])c2cc1N1CCCCC1 ?
Output: -32

Task: Another compound to check: CC(=O)SCCC[Si](C)(C)CCCSC(C)=O
Output: -3

Task: Next up: C#CCCCc1ccccc1
Output: -29

Task: Try the compound CC(=O)Nc1ccc2c(c1)C(=Nc1ccc(C(=O)O)cc1)c1ccccc1-2
Output: 1

Task: Okay, and C=C1CC(Cn2cc(Br)c(=O)[nH]c2=O)(c2ccc(-c3ccccc3)cc2)OC1=O (centres undefined) ?
Output: 1

Task: Request: CCCCCCCCCCC(=O)Cl
Output: 9

Task: Thanks! And Cc1ccc(S(=O)(=O)NCCSS(=O)(=O)c2ccc(C)cc2)cc1 ?
Output: 6

Task: Follow-up entry: CSc1nc(=S)[nH]c2c1c(C)nn2-c1ccccc1
Output: 11

Task: And what about the compound N#CN1C2CCC1CC(=O)C2 ?
Output: -25

Task: Can you handle c1ccc2c(c1)sc1nc3ccncc3nc12 next?
Output: 0

Task: Oc1cccc2c(Cl)ccnc12 , same question.
Output: 47
